# assayed.target: Voltage-gated inwardly rectifying potassium channel KCNH2 (Homo sapiens)
# Sequence (Q12809 whole entry): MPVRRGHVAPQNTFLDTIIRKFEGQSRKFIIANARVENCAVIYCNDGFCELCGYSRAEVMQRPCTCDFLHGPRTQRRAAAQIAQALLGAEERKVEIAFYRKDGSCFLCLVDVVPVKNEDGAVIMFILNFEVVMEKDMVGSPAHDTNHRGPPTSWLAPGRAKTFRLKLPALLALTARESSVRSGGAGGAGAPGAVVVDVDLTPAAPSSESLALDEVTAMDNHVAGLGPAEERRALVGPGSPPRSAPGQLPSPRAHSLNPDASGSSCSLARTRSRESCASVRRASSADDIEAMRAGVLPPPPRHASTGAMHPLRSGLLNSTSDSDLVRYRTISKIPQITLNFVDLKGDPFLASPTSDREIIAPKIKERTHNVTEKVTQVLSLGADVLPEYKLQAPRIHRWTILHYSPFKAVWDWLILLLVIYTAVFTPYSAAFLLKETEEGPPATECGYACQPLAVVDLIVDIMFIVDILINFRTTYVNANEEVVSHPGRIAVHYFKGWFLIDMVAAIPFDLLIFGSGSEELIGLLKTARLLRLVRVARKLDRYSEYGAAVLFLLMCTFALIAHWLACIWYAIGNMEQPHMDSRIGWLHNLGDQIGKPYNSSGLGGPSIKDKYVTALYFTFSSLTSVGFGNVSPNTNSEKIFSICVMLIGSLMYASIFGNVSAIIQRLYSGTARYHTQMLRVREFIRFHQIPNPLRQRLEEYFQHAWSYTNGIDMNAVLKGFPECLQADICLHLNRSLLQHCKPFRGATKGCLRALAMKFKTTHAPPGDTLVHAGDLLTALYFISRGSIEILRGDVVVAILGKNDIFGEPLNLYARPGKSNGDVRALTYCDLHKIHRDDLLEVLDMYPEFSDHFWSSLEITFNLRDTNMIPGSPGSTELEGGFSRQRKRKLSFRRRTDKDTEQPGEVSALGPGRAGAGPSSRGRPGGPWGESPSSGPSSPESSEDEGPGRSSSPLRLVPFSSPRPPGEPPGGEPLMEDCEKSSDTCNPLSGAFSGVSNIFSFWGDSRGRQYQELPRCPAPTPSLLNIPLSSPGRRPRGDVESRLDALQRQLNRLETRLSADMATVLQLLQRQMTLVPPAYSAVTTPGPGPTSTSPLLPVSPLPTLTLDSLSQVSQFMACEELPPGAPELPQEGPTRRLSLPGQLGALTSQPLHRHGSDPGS
# assay.method.text: Inhibition of hERG expressed in HEK cells
measured.attribute: IC50 (µM)
Field format: number, assumed µM, no unit text.

Task item: # get_value(readout='IC50', item= CC(=O)C1=NN(c2cc(C)ccc2F)C[C@@]1(CCCN(C)C)c1ccccc1 )
Reply: 3.04

###

# assay.method.text: Protein binding in mouse plasma
# Format: ADME, cell-free
# condition.description: read-out: PB (converted)
measured.attribute: fraction unbound
Write the number on its own, no unit after it.

Task item: # get_value(readout='fraction unbound', item= CC(=O)C1=NN(c2cc(C)ccc2F)C[C@@]1(CCCN(C)C)c1ccccc1 )
Reply: 0.07

###

# reported EC50; entries follow
# assayed.target: Kinesin-like protein KIF11 (Homo sapiens, UniProt P52732)
# assay.method.text: Inhibition of KSP-induced nucleolin phosphorylation in cell-based mitotic arrest assay
Field format: number, assumed µM, no unit text.

Solved entries (count: 5):
| compound | EC50, µM |
| --- | --- |
| CC(=O)C1=NN(c2cc(F)ccc2F)CC1(CCCN1CC(F)C1)c1ccccc1 (racemic) | 0.04 |
| CC(=O)C1=NN(c2cc(C(F)(F)F)ccc2F)CC1(CCCN1CCN(C(C)=O)CC1)c1ccccc1 (racemic) | 0.208 |
| CC(=O)C1=NN(c2cc(Br)ccc2F)CC1(CCCN1CCN(C(C)=O)CC1)c1ccccc1 (racemic) | 0.038 |
| CC(=O)C1=NN(c2cc(F)ccc2F)CC1(CCCN(C)Cc1cc(C)no1)c1ccccc1 (racemic) | 0.567 |
| CC(=O)C1=NN(c2cc(C)ccc2F)C[C@@]1(CCCN(C)C)c1ccccc1 | 0.0032 |

Task item: Reported EC50 for Kinesin-like protein KIF11 (Homo sapiens, UniProt P52732), given CC(=O)C1=NN(c2cc(F)ccc2F)CC1(CCCN1CCS(=O)(=O)CC1)c1ccccc1 (racemic) ?
Reply: 0.138

Task item: Reported EC50 for Kinesin-like protein KIF11 (Homo sapiens, UniProt P52732), given CC(=O)C1=NN(c2cc(Cl)ccc2F)CC1(CCCN1CCN(C(C)=O)CC1)c1ccccc1 (racemic) ?
Reply: 0.046

Task item: Reported EC50 for Kinesin-like protein KIF11 (Homo sapiens, UniProt P52732), given CC(=O)C1=NN(c2cc(C)ccc2F)CC1(CCCN1CCN(C(C)=O)CC1)c1ccccc1 (racemic) ?
Reply: 0.027

Task item: Reported EC50 for Kinesin-like protein KIF11 (Homo sapiens, UniProt P52732), given CC(=O)C1=NN(c2cc(F)ccc2F)CC1(CCCN1CCN(C(C)=O)CC1)c1ccccc1 (racemic) ?
Reply: 0.078

Task item: Reported EC50 for Kinesin-like protein KIF11 (Homo sapiens, UniProt P52732), given CC(=O)C1=NN(c2ccccc2F)CC1(CCCN1CCN(C(C)=O)CC1)c1ccccc1 (racemic) ?
Reply: 0.368

Task item: Reported EC50 for Kinesin-like protein KIF11 (Homo sapiens, UniProt P52732), given CC(=O)C1=NN(c2cc(F)ccc2F)CC1(CCCN1CCOCC1)c1ccccc1 (racemic) ?
Reply: 0.053

Task item: Reported EC50 for Kinesin-like protein KIF11 (Homo sapiens, UniProt P52732), given CC(=O)C1=NN2c3cc(F)ccc3OC[C@H]2[C@@]1(CCCN1CCN(C(C)=O)CC1)c1ccccc1 ?
Reply: 0.005

Task item: Reported EC50 for Kinesin-like protein KIF11 (Homo sapiens, UniProt P52732), given CC(=O)C1=NN(c2cc(F)ccc2F)CC1(CCCN1CC2CC1CO2)c1ccccc1 (racemic) ?
Reply: 0.011

Task item: Reported EC50 for Kinesin-like protein KIF11 (Homo sapiens, UniProt P52732), given CC(=O)C1=NN(c2cc(F)ccc2F)CC1(CCCN(C)C)c1ccccc1 (racemic) ?
Reply: 0.0094

Task item: Reported EC50 for Kinesin-like protein KIF11 (Homo sapiens, UniProt P52732), given CC(=O)C1=NN(c2cc(F)ccc2F)CC1(CCCN1CCCC1)c1ccccc1 (racemic) ?
Reply: 0.015

###

# Species: Homo sapiens
# assay.method.text: Protein binding in human plasma
# condition.description: read-out: PB (converted)
measured.attribute: fraction unbound
Write the number on its own, no unit after it.

Task item: # get_value(readout='fraction unbound', item= CC(=O)C1=NN(c2cc(C)ccc2F)C[C@@]1(CCCN(C)C)c1ccccc1 )
Reply: 0.04

###

# assay.method.text: Solubility at pH 4
# Type: physicochemical
# condition.description: buffer
# reported solubility; entries follow

| smiles.data | solubility |
| --- | --- |
| CC(=O)C1=NN2c3cc(F)ccc3OC[C@H]2[C@@]1(CCCN1CCN(C(C)=O)CC1)c1ccccc1 | > 4000 µg/mL |

Now look at this entry.
Task item: # get_value(readout='solubility', item= CC(=O)C1=NN(c2cc(C)ccc2F)C[C@@]1(CCCN(C)C)c1ccccc1 )
Reply: > 4000 µg/mL

###

# assayed.target: Kinesin-like protein KIF11 (Homo sapiens)
# Sequence (P52732 whole entry): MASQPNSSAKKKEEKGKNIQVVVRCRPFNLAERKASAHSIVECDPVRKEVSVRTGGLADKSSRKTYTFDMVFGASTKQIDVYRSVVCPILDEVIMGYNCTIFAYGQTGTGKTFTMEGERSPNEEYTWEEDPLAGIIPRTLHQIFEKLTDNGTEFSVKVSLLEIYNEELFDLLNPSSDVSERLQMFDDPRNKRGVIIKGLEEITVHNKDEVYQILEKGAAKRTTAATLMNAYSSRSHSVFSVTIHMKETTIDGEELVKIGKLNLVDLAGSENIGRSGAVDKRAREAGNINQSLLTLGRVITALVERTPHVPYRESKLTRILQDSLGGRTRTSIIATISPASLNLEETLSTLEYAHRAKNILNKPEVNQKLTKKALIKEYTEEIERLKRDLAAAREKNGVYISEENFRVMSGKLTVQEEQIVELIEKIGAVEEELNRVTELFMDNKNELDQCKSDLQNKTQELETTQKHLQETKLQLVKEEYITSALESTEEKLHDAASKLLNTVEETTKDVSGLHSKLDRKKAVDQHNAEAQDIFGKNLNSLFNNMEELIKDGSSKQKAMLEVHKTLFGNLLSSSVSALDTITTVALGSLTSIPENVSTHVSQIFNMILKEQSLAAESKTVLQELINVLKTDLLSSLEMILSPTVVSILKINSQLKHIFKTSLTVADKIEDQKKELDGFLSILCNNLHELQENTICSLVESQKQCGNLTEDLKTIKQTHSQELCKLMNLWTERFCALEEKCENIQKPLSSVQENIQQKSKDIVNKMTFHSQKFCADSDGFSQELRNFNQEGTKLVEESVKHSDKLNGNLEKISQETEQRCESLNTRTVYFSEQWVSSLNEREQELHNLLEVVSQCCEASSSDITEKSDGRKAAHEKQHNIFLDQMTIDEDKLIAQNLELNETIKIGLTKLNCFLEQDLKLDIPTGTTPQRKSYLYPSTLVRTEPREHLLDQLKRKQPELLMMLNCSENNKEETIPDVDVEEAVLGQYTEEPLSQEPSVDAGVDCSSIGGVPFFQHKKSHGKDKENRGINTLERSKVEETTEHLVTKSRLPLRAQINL
# reported IC50; entries follow
Field format: number, assumed nM, no unit text.

Task item: # get_value(readout='IC50', item= CC(=O)C1=NN(c2cc(F)ccc2F)CC1(CCCN1CCN(C(C)=O)CC1)c1ccccc1 (racemic) )
Reply: 3.8

Task item: # get_value(readout='IC50', item= CC(=O)C1=NN(c2cc(C)ccc2F)CC1(CCCN1CCN(C(C)=O)CC1)c1ccccc1 (racemic) )
Reply: 2

Task item: # get_value(readout='IC50', item= CC(=O)C1=NN(c2cc(F)ccc2F)CC1(CCCN(C)Cc1cc(C)no1)c1ccccc1 (racemic) )
Reply: 4

Task item: # get_value(readout='IC50', item= CC(=O)C1=NN(c2cc(C)ccc2F)C[C@@]1(CCCN(C)C)c1ccccc1 )
Reply: 0.2

Task item: # get_value(readout='IC50', item= CC(=O)C1=NN(c2cc(F)ccc2F)CC1(CCCN1CCCC1)c1ccccc1 (racemic) )
Reply: 3.8
